Test system: MDA-MB-231
Assay: Cytotoxicity against human MDA-MB-231 cells assessed as growth inhibition at 10 uM after 48 hrs by SRB assay
Format: functional
Details: MDA-MB-231, 48 h, read-out: GI
measured metric: inhibition of growth at 10 µM
Your reply should be a number followed by the unit it is expressed in.

*Q* # value lookup — system MDA-MB-231, readout inhibition of growth at 10 µM, item `COc1cc(NC(=O)CCSc2nc3ccc(C)cc3c(=O)n2-c2ccccc2)cc(OC)c1OC`
*A* 53%

*Q* Same again, this time with `COc1cc(NC(=O)CCSc2nc3ccc(Cl)cc3c(=O)n2-c2ccccc2)cc(OC)c1OC`
*A* 10%

*Q* Please do the same for `COc1cc(NC(=O)CSc2nc3ccccc3c(=O)n2-c2ccccc2)cc(OC)c1OC` as well.
*A* 23%

*Q* How about this compound: `COc1cc(NC(=O)CCSc2nc3ccc(Cl)cc3c(=O)n2-c2ccc(F)cc2)cc(OC)c1OC`
*A* 42%

*Q* Further, for `COc1cc(NC(=O)CSc2nc3ccc(C)cc3c(=O)n2-c2ccccc2)cc(OC)c1OC` ?
*A* 23%

*Q* Input `COc1cc(NC(=O)CCSc2nc3ccccc3c(=O)n2-c2ccc(F)cc2)cc(OC)c1OC`
*A* 47%

*Q* Request: `COc1cc2nc(SCCC(=O)Nc3cc(OC)c(OC)c(OC)c3)n(-c3ccccc3)c(=O)c2cc1OC`
*A* 14%

*Q* Could you do the same for `COc1cc(NC(=O)CSc2nc3ccc(Cl)cc3c(=O)n2-c2ccc(F)cc2)cc(OC)c1OC` , please?
*A* 34%

*Q* Now the same for `COc1cc(NC(=O)CCSc2nc3ccccc3c(=O)n2-c2ccccc2)cc(OC)c1OC`
*A* 41%

// data source = ChEMBL document CHEMBL3784933
